Assay: Apparent aqueous solubility of the compound by HPLC analysis
Assay type: physicochemical
Conditions: aqueous solution
solubility: recorded values

compound	unit-abbreviation	censoring-sign	solubility
C=CCc1ccc(O)c(-c2cc(CC=C)cc(CN3CCN(CCOC)CC3)c2O)c1	µg/mL	=	120
C=CCc1ccc(O)c(-c2cc(CC=C)cc([C@@H]3C=C(C)CC[C@H]3C(C)C)c2O)c1	µg/mL	<	10
C=CCc1ccc(O)c(-c2cc(CC=C)cc(CN3CCCC(N)C3)c2O)c1 (stereo not given)	µg/mL	=	4080
C=CCc1ccc(O)c(-c2cc(CC=C)ccc2O)c1	µg/mL	<	10
C=CCc1ccc(O)c(-c2ccc(O)c(CC=C)c2)c1	µg/mL	<	10

* * *

System: NCI-H1975
Experiment: Antiproliferative activity against human NCI-H1975 cells after 72 hrs by MTT assay
Type: functional, cell-based
Conditions: NCI-H1975, 72 h
IC50: recorded values

molecule	target	IC50
C=CCc1ccc(O)c(-c2cc(CC=C)cc(CN3CCOCC3)c2O)c1	NCI-H1975	> 20 µM
C=CCc1ccc(O)c(-c2cc(CC=C)cc(CN3CCN(C(=O)OC(C)(C)C)CC3)c2O)c1	NCI-H1975	> 20 µM
C=CCc1ccc(O)c(-c2cc(CC=C)cc(CN3CCN(C=O)CC3)c2O)c1	NCI-H1975	> 20 µM
C=CCc1ccc(O)c(-c2cc(CC=C)cc(CN3CCC(CNC(=O)OC(C)(C)C)CC3)c2O)c1	NCI-H1975	> 20 µM
C=CCc1ccc(O)c(-c2cc(CC=C)cc(CN3CCCC(C(=O)OCC)C3)c2O)c1 (stereo unspecified)	NCI-H1975	> 20 µM
C=CCc1ccc(O)c(-c2cc(CC=C)cc(CN3CCCC(NC(=O)OC(C)(C)C)C3)c2O)c1 (stereo unspecified)	NCI-H1975	13.9 µM
C=CCc1ccc(O)c(-c2cc(CC=C)cc(CN3CCN(C)CC3)c2O)c1	NCI-H1975	> 20 µM
C=CCc1ccc(O)c(-c2cc(CC=C)ccc2O)c1	NCI-H1975	> 40 µM
C=CCc1ccc(O)c(-c2cc(CC=C)cc([C@@H]3C=C(C)CC[C@H]3C(C)C)c2O)c1	NCI-H1975	16.6 µM
C=CCc1ccc(O)c(-c2cc(O)ccc2O)c1	NCI-H1975	> 40 µM
C=CCc1ccc(O)c(-c2cc(C(=O)O)ccc2O)c1	NCI-H1975	> 40 µM

* * *

Test system: NCI-H1975
Assay: Antiproliferative activity against human NCI-H1975 cells after 72 hrs by MTT assay
Assay type: functional, cell-based
Conditions: NCI-H1975, 72 h
pIC50: −log10 of the molar value.
quantity-name: pIC50

molecule	observed-measurement
C=CCc1cc(-c2cc(C=O)ccc2O)ccc1O	< 4.40
C=CCc1ccc(O)c(-c2ccc(O)c(CC(O)CO)c2)c1 (stereo unspecified)	< 4.40
C=CCc1ccc(O)c(-c2cc(CC=C)cc(CN3CCN(C(C)=O)CC3)c2O)c1	< 4.70
C=CCc1ccc(O)c(-c2cc(CC=C)cc(CN3CCN(CCCC)CC3)c2O)c1	< 4.70
C=CCc1ccc(O)c(-c2cc(CC=C)cc(CN3CCCC(C)C3)c2O)c1 (stereo unspecified)	< 4.70
C=CCc1ccc(O)c(-c2cc(CC=C)cc(CN3CCNCC3)c2O)c1	< 4.70

* * *

Test system: NCI-H1975
Test: Antiproliferative activity against human NCI-H1975 cells after 72 hrs by MTT assay
Type: functional, cell-based
Conditions: NCI-H1975, 72 h
pIC50: −log10 of the molar value.
quantity-name: pIC50

compound	observed-measurement
C=CCc1cc(-c2cc(CC=C)cc([C@@H]3C=C(C)CC[C@H]3C(C)C)c2O)c(O)c([C@@H]2C=C(C)CC[C@H]2C(C)C)c1	< 4.40
C=CCc1ccc(O)c(-c2cc(CC=C)cc(CN3CCCCC3)c2O)c1	< 4.70
C=CCc1ccc(O)c(-c2ccc(O)c(CC3CO3)c2)c1 (stereo not drawn)	< 4.40
C=CCc1ccc(O)c(-c2ccc(O)c(/C=C/C)c2)c1	4.59
C=CCc1ccc(O)c(-c2cc(CC=C)cc(CN3CCN(C(=O)C4CC4)CC3)c2O)c1	< 4.70
C=CCc1ccc(O)c(-c2cc(CC=C)cc(CN3CCC(N)CC3)c2O)c1	5.25
C=CCc1ccc(O)c(-c2cc(CC=C)cc(CN3CCN(C(C)C)CC3)c2O)c1	< 4.70
C=CCc1ccc(O)c(-c2cc(CC=C)cc(CN3CCN(CCOC)CC3)c2O)c1	5.15

Reference source: ChEMBL document CHEMBL4152332
